Below, each of the molecules is paired with its reported pKi value.
biological target: UniProt:P9WIA1; assay: Inhibition of Mycobacterium tuberculosis PtpA; details: read-out: Ki
Sequence (P9WIA1 whole entry): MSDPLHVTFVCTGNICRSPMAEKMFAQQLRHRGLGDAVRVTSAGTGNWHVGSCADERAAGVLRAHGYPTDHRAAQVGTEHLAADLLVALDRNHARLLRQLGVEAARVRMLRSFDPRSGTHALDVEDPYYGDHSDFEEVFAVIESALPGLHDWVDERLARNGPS
pKi: −log10 of the molar value.
Quantity kind: pKi

In [3]: df
Out[3]:
                            substance_smiles          target  comparison_sign  data_value
 0  O=C(NCC(F)(F)F)c1ccc(C(F)(F)P(=O)(O)O)cc1  UniProt:P9WIA1                =        4.30
 1  O=C(Nc1ccccc1C(F)(F)F)c1ccc(C(F)(F)P(=O)(O)O)cc1  UniProt:P9WIA1                =        4.26
 2  O=C(Nc1ccc(Cl)c(C(F)(F)F)c1)c1ccc(C(F)(F)P(=O)(O)O)cc1  UniProt:P9WIA1                =        5.22
 3  O=C(Nc1ccc(Cl)cc1)c1ccc(C(F)(F)P(=O)(O)O)cc1  UniProt:P9WIA1                =        4.77
 4  O=P(O)(O)C(F)(F)c1ccc2c(cnn2Cc2ccccc2)c1  UniProt:P9WIA1                <        4.00
 5  O=C(Nc1ccc(C(F)(F)P(=O)(O)O)cc1)Nc1cc(C(F)(F)F)cc(C(F)(F)F)c1  UniProt:P9WIA1                =        5.51
 6    O=[N+]([O-])c1ccc(C(F)(F)P(=O)(O)O)cc1  UniProt:P9WIA1                =        4.12
 7   O=C(Nc1nccs1)c1ccc(C(F)(F)P(=O)(O)O)cc1  UniProt:P9WIA1                =        4.48
 8   O=C(NC1CCCC1)c1ccc(C(F)(F)P(=O)(O)O)cc1  UniProt:P9WIA1                =        4.14
 9  O=C(Nc1ccc(Br)c(C(F)(F)F)c1)c1ccc(C(F)(F)P(=O)(O)O)cc1  UniProt:P9WIA1                =        5.31
10  O=C(NCc1ccccc1)c1ccc(C(F)(F)P(=O)(O)O)cc1  UniProt:P9WIA1                =        4.37
11  O=C(Nc1cccc(Cl)c1)c1ccc(C(F)(F)P(=O)(O)O)cc1  UniProt:P9WIA1                =        4.46
12       O=P(O)(O)C(F)(F)c1ccc(-c2ccccc2)cc1  UniProt:P9WIA1                <        4.00
13  O=C(NCCc1ccccc1)c1ccc(C(F)(F)P(=O)(O)O)cc1  UniProt:P9WIA1                =        4.21
14  O=C(Cc1ccc(C(F)(F)P(=O)(O)O)cc1)Nc1ccccc1  UniProt:P9WIA1                <        4.00
15  O=C(Nc1ccc(C(F)(F)F)cc1)c1ccc(C(F)(F)P(=O)(O)O)cc1  UniProt:P9WIA1                =        4.73
16  O=C(Nc1cccc(Br)c1)c1ccc(C(F)(F)P(=O)(O)O)cc1  UniProt:P9WIA1                =        4.74

Cited source: ChEMBL document CHEMBL1153717
